Several publications report log10 of Ki on Sodium-dependent serotonin transporter (Homo sapiens); those values are gathered here.
Response schema: value (number) is log10 of Ki in units of nM.

1. Fc1ccc(Oc2c(F)cccc2OC[C@H]2CCCNC2)cc1 : 3.11
2. Fc1ccc(-c2nc(N3CCNCC3)nc3cc(F)ccc23)c(F)c1 : 1.22
3. COc1ccc(C2CN(C)Cc3cc(OC4CCN(C)CC4)ncc32)cc1 (stereo not shown) : 3.01
4. COc1ccc(C2CN(C)Cc3cc(OCCCN4CCN(C(C)=O)CC4)ccc32)cc1 (stereo not shown) : 1.75

Query: Find log10 of Ki (Sodium-dependent serotonin transporter (Homo sapiens)) for the entry Oc1cccc(-c2ccc(F)cc2CO[C@H]2CCNC2)c1
Response: 2.71

Query: Find log10 of Ki (Sodium-dependent serotonin transporter (Homo sapiens)) for the entry FC(F)(F)Oc1cccc(-c2ccccc2CO[C@H]2CCNC2)c1
Response: 1.49

Query: Find log10 of Ki (Sodium-dependent serotonin transporter (Homo sapiens)) for the entry Fc1ccc2nc(N3CCNCC3)nc(-c3ccccc3)c2c1
Response: 1.72

Query: Find log10 of Ki (Sodium-dependent serotonin transporter (Homo sapiens)) for the entry Fc1ccc2c(-c3c(F)cccc3F)nc(N[C@@H]3CCNC3)nc2c1
Response: 2.81

Query: Find log10 of Ki (Sodium-dependent serotonin transporter (Homo sapiens)) for the entry Cc1cc(C)n(-c2cccc(-c3ccccc3CO[C@H]3CCNC3)c2)n1
Response: 1.76

Query: Find log10 of Ki (Sodium-dependent serotonin transporter (Homo sapiens)) for the entry N[C@H]1CCN(c2nc(-c3cccc(F)c3F)c3ccc(F)cc3n2)C1
Response: 1.48

Query: Find log10 of Ki (Sodium-dependent serotonin transporter (Homo sapiens)) for the entry FCC(Oc1ccc(Br)cc1OC1CNC1)c1ccccc1 (stereo not shown)
Response: 2.79

Query: Find log10 of Ki (Sodium-dependent serotonin transporter (Homo sapiens)) for the entry CN1Cc2cc(CCCCN3CCCCC3)ccc2C(c2cccnc2)C1 (stereo not shown)
Response: 2.20

Query: Find log10 of Ki (Sodium-dependent serotonin transporter (Homo sapiens)) for the entry FC(COc1ccc(Cl)cc1OC1CNC1)c1ccccc1 (stereo not shown)
Response: 2.53

Query: Find log10 of Ki (Sodium-dependent serotonin transporter (Homo sapiens)) for the entry CN1Cc2cc(OCCCN3CCC(F)CC3)ccc2C(c2ccc(Cl)cc2)C1 (stereo not shown)
Response: 1.04

Query: Find log10 of Ki (Sodium-dependent serotonin transporter (Homo sapiens)) for the entry CC(C)[C@H]1CNCCN1c1nc(-c2ccc(F)cc2F)c2ccccc2n1
Response: 1.84

Query: Find log10 of Ki (Sodium-dependent serotonin transporter (Homo sapiens)) for the entry FC(F)(F)c1ccc([C@H]2CN3CCC[C@H]3c3cc(OCCCN4CCCCC4)ccc32)cc1 (relative stereo)
Response: 1.08

Query: Find log10 of Ki (Sodium-dependent serotonin transporter (Homo sapiens)) for the entry CCOc1ncccc1OC(c1ccccc1)C1CCCNC1 (single isomer, unassigned; stereoisomer a)
Response: 1.85

Query: Find log10 of Ki (Sodium-dependent serotonin transporter (Homo sapiens)) for the entry Cc1ccc(OC[C@H]2CCCNC2)c(Oc2ccccc2OC(C)C)n1
Response: 3.41

Query: Find log10 of Ki (Sodium-dependent serotonin transporter (Homo sapiens)) for the entry CCN(CCCOc1ccc2c(c1)CN(C)CC2c1ccc(OC)cc1)CCOC (stereo not shown)
Response: 0.90
